MEASURED TARGET: recombinant EGFR T790M/L858R kinase (Homo sapiens, UniProt P00533, L858R/T790M)
Construct: Constructs spanning residues 696-1022 of the human EGFR; GST (cleaved yes)
Sequence (P00533 696-1022 T790M/L858R): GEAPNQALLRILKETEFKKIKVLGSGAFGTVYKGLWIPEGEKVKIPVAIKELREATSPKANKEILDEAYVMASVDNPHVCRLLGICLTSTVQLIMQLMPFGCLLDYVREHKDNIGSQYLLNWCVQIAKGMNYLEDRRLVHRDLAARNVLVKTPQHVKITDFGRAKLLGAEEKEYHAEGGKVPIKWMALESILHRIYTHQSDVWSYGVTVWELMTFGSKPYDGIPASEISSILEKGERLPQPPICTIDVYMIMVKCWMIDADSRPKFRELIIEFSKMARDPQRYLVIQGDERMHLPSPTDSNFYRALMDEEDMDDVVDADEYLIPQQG
ASSAY SUMMARY: HTRF-based EGFR biochemical assay
VALUE KIND: IC50

                                   compound  reported_result
0  CN1CCN(c2ccc(-c3ccc4c(c3)C(=O)N(Cc3ccccc3)c3cc(F)ccc3N4)cc2)CC1 [I-17]         < 250 nM

Now consider a different compound.
Which IC50 is reported for this compound? O=C1c2cc(-c3ccc(N4CCNCC4)cc3)ccc2Nc2ccc(F)cc2N1Cc1ccccc1 [I-1] < 250 nM

====

MEASURED TARGET: EGFR T790M/L858R Ba/F3 cell line (Homo sapiens, UniProt P00533, T790M/L858R, cells depend on it)
Construct: The constructs were shuttled into the retroviral vector JP1540 using the BD Creator™ System (BD Biosciences)
Sequence (P00533 whole entry T790M/L858R): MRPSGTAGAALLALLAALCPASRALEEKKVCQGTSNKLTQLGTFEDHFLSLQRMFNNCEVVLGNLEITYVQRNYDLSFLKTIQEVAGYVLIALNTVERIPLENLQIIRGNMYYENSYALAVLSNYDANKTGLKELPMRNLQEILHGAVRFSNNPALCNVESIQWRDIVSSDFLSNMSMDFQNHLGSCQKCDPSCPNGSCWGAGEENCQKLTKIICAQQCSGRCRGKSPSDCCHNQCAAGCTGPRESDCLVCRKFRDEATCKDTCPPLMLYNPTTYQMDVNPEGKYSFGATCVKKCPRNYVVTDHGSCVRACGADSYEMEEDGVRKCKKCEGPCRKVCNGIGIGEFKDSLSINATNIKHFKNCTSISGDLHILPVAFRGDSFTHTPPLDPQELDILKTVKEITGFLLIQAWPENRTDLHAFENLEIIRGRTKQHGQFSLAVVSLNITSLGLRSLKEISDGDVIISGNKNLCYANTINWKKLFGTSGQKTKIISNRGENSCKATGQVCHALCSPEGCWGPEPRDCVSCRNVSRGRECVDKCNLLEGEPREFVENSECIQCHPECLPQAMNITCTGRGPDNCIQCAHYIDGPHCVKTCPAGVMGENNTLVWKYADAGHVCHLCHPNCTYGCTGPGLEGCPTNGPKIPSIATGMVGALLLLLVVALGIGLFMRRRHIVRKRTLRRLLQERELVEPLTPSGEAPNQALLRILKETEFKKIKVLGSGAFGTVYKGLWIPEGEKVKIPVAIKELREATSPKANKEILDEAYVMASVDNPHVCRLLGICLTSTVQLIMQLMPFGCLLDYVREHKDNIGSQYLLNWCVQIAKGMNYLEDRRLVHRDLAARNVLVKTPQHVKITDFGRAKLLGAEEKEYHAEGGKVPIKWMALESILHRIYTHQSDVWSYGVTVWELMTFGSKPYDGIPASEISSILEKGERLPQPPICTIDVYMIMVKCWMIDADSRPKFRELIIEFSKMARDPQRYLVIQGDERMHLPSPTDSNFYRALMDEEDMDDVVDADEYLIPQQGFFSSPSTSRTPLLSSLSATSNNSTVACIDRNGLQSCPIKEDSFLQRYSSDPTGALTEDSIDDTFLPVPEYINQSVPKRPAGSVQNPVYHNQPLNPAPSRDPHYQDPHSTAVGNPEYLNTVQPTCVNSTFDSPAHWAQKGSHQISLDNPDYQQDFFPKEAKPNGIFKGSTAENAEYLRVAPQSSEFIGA
ASSAY SUMMARY: Ba/F3 cell proliferation (MTS assay)
Type: cell-based, murine
REPORTED CONDITIONS: compound at 1 μM in the presence of 1 μg/mL cetuximab; EGFR T790M/L858R Ba/F3
VALUE KIND: Remaining cell proliferation activity (% of control)

Illustrative cases are given below, each with its answer.
In [3]: df
Out[3]:
                               smiles_entry  reported_result
0  O=C1c2cc(-c3ccc(N4CCNCC4)cc3)ccc2Nc2ccccc2N1Cc1ccccc1  B (25 ≤ B < 50)
1  O=C1c2cc(-c3ccc(N4CCNCC4)cc3)ccc2Nc2ccc(F)cc2N1Cc1cccnc1       D (75 ≤ D)
2  O=C1c2cc(-c3ccc4[nH]ccc4c3)ccc2Nc2ccc(F)cc2N1Cc1ccccc1  B (25 ≤ B < 50)
3  O=C1c2cc(-c3ccc4[nH]ccc4c3)ccc2Nc2ccc(F)cc2N1c1ccccc1       D (75 ≤ D)

Which Remaining cell proliferation activity (% of control) is reported for this compound? `O=C1c2cc(-c3ccc4[nH]ccc4c3)ccc2Nc2ccc(F)cc2N1Cc1cccnc1` D (75 ≤ D)

Which Remaining cell proliferation activity (% of control) is reported for this compound? `O=C1c2cc(-c3ccc4[nH]ccc4c3)ccc2Nc2ccc(F)cc2N1Cc1nccs1` D (75 ≤ D)

====

MEASURED TARGET: EGFR T790M/L858R Ba/F3 cell line (Homo sapiens, UniProt P00533, T790M/L858R, cells depend on it)
Construct: The constructs were shuttled into the retroviral vector JP1540 using the BD Creator™ System (BD Biosciences)
ASSAY SUMMARY: Ba/F3 cell proliferation (MTS assay)
Format: cell-based, murine
REPORTED CONDITIONS: read-out: Ba/F3 cellular activity (EC50) T790M/L858R + Cetuximab (1 μg/mL); presence of 1 μg/mL cetuximab
pEC50: −log10 of the molar value.
VALUE KIND: pEC50

Which pEC50 is reported for this molecule? `O=C1c2cc(-c3ccc(N4CCNCC4)cc3)ccc2Nc2ccc(F)cc2N1Cc1cccnc1` ≤ 6.12

Which pEC50 is reported for this molecule? `CN1CCC(n2cc(-c3ccc4c(c3)C(=O)N(Cc3cccc(Cl)c3)c3cc(F)ccc3N4)cn2)CC1` ≤ 6.12

Which pEC50 is reported for this molecule? `O=C1c2cc(-c3ccc(N4CCNCC4)cc3)ccc2Nc2ccncc2N1Cc1ccccc1` ≤ 6.12

====

MEASURED TARGET: EGFR T790M/L858R Ba/F3 cell line (Homo sapiens, UniProt P00533, T790M/L858R, cells depend on it)
Construct: The constructs were shuttled into the retroviral vector JP1540 using the BD Creator™ System (BD Biosciences)
ASSAY SUMMARY: Ba/F3 cell proliferation (MTS assay)
Format: cell-based, murine
REPORTED CONDITIONS: read-out: Ba/F3 cellular activity (EC50) T790M/L858R + Cetuximab (1 μg/mL); presence of 1 μg/mL cetuximab
pEC50: −log10 of the molar value.
VALUE KIND: pEC50

Illustrative cases are given below, each with its answer.
                               smiles_entry  reported_result
0  Nc1ccc2c(c1)N(Cc1ccccc1)C(=O)c1cc(-c3ccc4[nH]ccc4c3)ccc1N2           ≤ 6.12
1  CCC(=O)Nc1ccc2c(c1)N(Cc1ccccc1)C(=O)c1cc(-c3ccc4[nH]ccc4c3)ccc1N2     6.30 to 6.60
2  CN1CCC(n2cc(-c3ccc4c(c3)C(=O)N(Cc3ccccc3)c3cc(F)ccc3N4)cn2)CC1           > 6.60

Which pEC50 is reported for this compound? `O=C1c2cc(-c3ccc4[nH]ccc4c3)ccc2Nc2ccc(F)cc2N1c1ccccc1` ≤ 6.12

====

MEASURED TARGET: EGFR T790M/L858R Ba/F3 cell line (Homo sapiens, UniProt P00533, T790M/L858R, cells depend on it)
Construct: The constructs were shuttled into the retroviral vector JP1540 using the BD Creator™ System (BD Biosciences)
ASSAY SUMMARY: Ba/F3 cell proliferation (MTS assay)
Format: cell-based, murine
REPORTED CONDITIONS: compound at 1 μM in the presence of 1 μg/mL cetuximab; EGFR T790M/L858R Ba/F3
VALUE KIND: Remaining cell proliferation activity (% of control)

In [3]: df
Out[3]:
                               smiles_entry  reported_result
0  O=C1c2cc(-c3ccc(N4CCNCC4)cc3)ccc2Nc2ccc(F)cc2N1Cc1ccccc1  B (25 ≤ B < 50)
1  CN1CCC(n2cc(-c3ccc4c(c3)C(=O)N(Cc3ccccc3)c3cc(F)ccc3N4)cn2)CC1  B (25 ≤ B < 50)
